System: Mus musculus
EXPERIMENTAL DETAILS: Toxicity in Swiss albino mouse assessed as piloerection up to 2000 mg/kg, po measured from 5 hrs post-dose to 14 days relative to untreated-control
Type: organism-based
Design: dose 2000 mg/kg, route oral
TEST PARAMETERS: in vivo
MEASUREMENT NAME: Activity

Use these answered entries as a reference point.
{"columns": ["COMPOUND", "Activity"],
 "data": [
  ["O=C(O)[C@H]1C[C@@H](Cl)C[C@@H](c2cccc3ccccc23)O1 (relative stereo)", "Non-toxic"],
  ["OC[C@H]1C[C@@H](Cl)C[C@@H](c2cccc3ccccc23)O1 (relative stereo)", "Non-toxic"],
  ["O=C(O)[C@H]1C[C@@H](Cl)C[C@@H](c2ccc3ccccc3c2)O1 (relative stereo)", "Non-toxic"],
  ["CC[C@@H]1CCC[C@H](C(=O)O)O1 (racemic)", "Non-toxic"],
  ["OC[C@H]1CCC[C@@H](c2cccc3ccccc23)O1 (relative stereo)", "Non-toxic"]
]}

# input compound: OC[C@H]1C[C@@H](Cl)C[C@@H](c2ccc3ccccc3c2)O1 (relative stereo) ; wanted: its Activity
Non-toxic

How about this compound: OC[C@H]1CCC[C@@H](c2ccc3ccccc3c2)O1 (relative stereo)
Non-toxic

How about this compound: CC(C)C(=O)OC[C@H]1C[C@@H](Cl)C[C@@H](c2ccc3ccccc3c2)O1 (relative stereo)
Non-toxic

How about this compound: CC(C)C(=O)OC[C@H]1C[C@@H](Cl)C[C@@H](c2cccc3ccccc23)O1 (relative stereo)
Non-toxic

How about this compound: O=C(O)[C@H]1CCC[C@@H](c2ccc3ccccc3c2)O1
Non-toxic

How about this compound: O=C(O)[C@H]1CCC[C@@H](c2cccc3ccccc23)O1 (relative stereo)
Non-toxic
